Experiment: Stat Signaling Pathway (AID 446);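 further: ME-180 cervical cancer cells given 40 pM IL-6 alongside compound; SIE-controlled beta-lactamase reporter measured as 460/530 nm FRET emission ratio; on the % scale 0 is the no-effect control and ±100 the full control effect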
Settings: ME-180 SIE beta-lactamase reporter, IL-6 stimulated, 5 h; at 7.69 µM (top of the series) unless noted
Results filed as inconclusive are left out. Calls of active or inactive are those of the source. The call rests on the fitted dose curve; in most records, active means well fitted curve in either direction with a large enough effect (not every such curve was filed as active); inconclusive means small, poorly fitted or top-dose-only effect, or another doubt; inactive means flat fitted curve, though single readings scatter.

| SMILES_STR | activity, negative = inhibition |
| --- | --- |
| COc1ccc(CNc2ncncc2-c2ccccc2C(F)(F)F)c(OC)c1 | 2.4% (inactive) |
| CN(C)C(=O)c1ccc(-c2ccc3ncnc(NC4CCNCC4)c3c2)cc1 | 14.8% (inactive) |
| Cc1cnc(CNc2nc(-c3ccccc3Cl)nc3ccccc23)cn1 | -10.8% (inactive) |
| COc1ccc2[nH]cc(CCNc3ncnc4ccc(-c5ccccc5C#N)cc34)c2c1 | -19.5% (inactive) |
| COc1ccc(NC(=O)N2CC[C@@]3(CCCN(C(C)=O)C3)C2)cc1 | 6.12% (inactive) |

---

Assay: qHTS profiling for inhibitors of Plasmodium falciparum proliferation (AID 504749);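 further: 0% = DMSO vehicle and full inhibition = artemisinin control; nearly all actives have a fitted effect of over 60% in size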
Settings: P. falciparum in erythrocytes, SYBR Green DNA, 72 h; at 12.8 µM (top of the series); parasite line B
Results filed as inconclusive are left out.
Collected activity, negative = inhibition values appear next to each entry.

| SMILES_STR | activity, negative = inhibition, % |
| --- | --- |
| NS(=O)(=O)c1cc([C@@]2(O)NC(=O)c3ccccc32)ccc1Cl | 2.66 |
| CC1(C)O[C@@H]2C[C@H]3[C@H]4C[C@H](F)C5=CC(=O)C=C[C@@]5(C)[C@@H]4[C@H](O)C[C@]3(C)[C@]2(C(=O)CO)O1 | 13.2 |
| CC(C)(O/N=C(\C(=O)N[C@@H]1C(=O)N2C(C(=O)[O-])=C(C[n+]3ccccc3)CS[C@@H]12)c1csc(N)n1)C(=O)O | -2.21 |
| O=C(c1ccccc1)c1ccc2n1CC[C@H]2C(=O)O | 2.01 |
| C/C=C\C(=O)N(CC)c1ccccc1C | 1.34 |
| CN(C)[C@H]1C(=O)C(C(=O)NCN2CCCC2)=C(O)[C@]2(O)C(=O)C3=C(O)c4c(O)cccc4[C@@](C)(O)[C@H]3C[C@@H]12 | 2.5 |
| NC(=O)OC[C@H](O)COc1ccc(Cl)cc1 | -7.73 |
| O=C(O)/C=C\c1ccc(Cn2ccnc2)cc1 | -5.94 |
| CCCN[C@@H](C)C(=O)Nc1c(C)csc1C(=O)OC | 16.5 |
| O=c1[nH]c(=O)n([C@@H]2C[C@H](O)[C@H](CO)O2)cc1I | 14.3 |
| COc1ccc(C[C@@H]2c3cc(OC)c(OC)cc3CC[N@+]2(C)CCC(=O)OCCCCCOC(=O)CC[N@@+]2(C)CCc3cc(OC)c(OC)cc3[C@H]2Cc2ccc(OC)c(OC)c2)cc1OC | 13.8 |

---

Target: Ubiquitin carboxyl-terminal hydrolase 1 (Homo sapiens) (UniProt O94782)
Sequence (O94782 whole entry, looked up): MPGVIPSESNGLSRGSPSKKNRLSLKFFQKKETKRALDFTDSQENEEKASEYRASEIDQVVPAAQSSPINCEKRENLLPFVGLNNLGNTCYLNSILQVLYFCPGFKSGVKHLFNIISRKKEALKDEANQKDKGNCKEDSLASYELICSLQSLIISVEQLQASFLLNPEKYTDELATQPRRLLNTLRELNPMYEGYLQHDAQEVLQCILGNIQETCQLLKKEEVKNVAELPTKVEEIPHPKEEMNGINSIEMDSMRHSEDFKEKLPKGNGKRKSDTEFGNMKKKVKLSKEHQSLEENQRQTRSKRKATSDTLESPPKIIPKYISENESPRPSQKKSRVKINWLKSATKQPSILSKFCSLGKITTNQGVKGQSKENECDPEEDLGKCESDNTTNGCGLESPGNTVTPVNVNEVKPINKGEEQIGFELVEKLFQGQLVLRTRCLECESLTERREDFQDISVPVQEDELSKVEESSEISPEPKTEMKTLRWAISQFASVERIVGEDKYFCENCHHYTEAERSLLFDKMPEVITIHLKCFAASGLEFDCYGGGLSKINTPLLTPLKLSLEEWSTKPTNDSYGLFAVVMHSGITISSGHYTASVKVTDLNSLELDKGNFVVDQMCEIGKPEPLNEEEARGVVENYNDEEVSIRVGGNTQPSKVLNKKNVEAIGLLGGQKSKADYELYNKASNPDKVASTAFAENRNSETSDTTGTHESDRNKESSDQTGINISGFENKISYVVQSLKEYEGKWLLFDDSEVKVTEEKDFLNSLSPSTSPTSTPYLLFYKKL
Assay: Inhibitors of USP1/UAF1: Pilot qHTS (AID 504865); further: nearly all actives have a fitted effect of over 35% in size
Settings: purified USP1/UAF1, Ub-rhodamine cleavage fluorescence; series mostly up to 54.9 µM
Inconclusive results are not listed. Activity calls are given as the source filed them. Calls follow the shape of the dose curve; as a rule, active = well fitted inhibition curve with a large enough effect; inconclusive = small, poorly fitted or top-dose-only effect; inactive = flat fitted curve, though single readings scatter.
Outcomes: Y (active), N (inactive)

| SMILES_STR | ASSAY_TARGET | LABEL_CLASS |
| --- | --- | --- |
| COc1ccccc1-c1nccc(NCc2ccccc2)n1 | Ubiquitin carboxyl-terminal hydrolase 1 (Homo sapiens) (UniProt O94782) | Y |
| COCCn1c(=O)c(-c2ccccc2)nc2cnc(N(C)C)nc21 | Ubiquitin carboxyl-terminal hydrolase 1 (Homo sapiens) (UniProt O94782) | N |
| N#CCCn1c(=O)c(-c2ccc(Cl)cc2)nc2cnc(Nc3ccccc3)nc21 | Ubiquitin carboxyl-terminal hydrolase 1 (Homo sapiens) (UniProt O94782) | N |
| COC(=O)CCCOc1ccc(Cl)cc1Cl | Ubiquitin carboxyl-terminal hydrolase 1 (Homo sapiens) (UniProt O94782) | N |
| Cn1c(=O)c(-c2ccc(F)cc2)nc2cnc(N3CCOCC3)nc21 | Ubiquitin carboxyl-terminal hydrolase 1 (Homo sapiens) (UniProt O94782) | N |
| COCCNc1nc(-c2ccoc2)nc2ccccc12 | Ubiquitin carboxyl-terminal hydrolase 1 (Homo sapiens) (UniProt O94782) | N |
| CNc1ncnc2ccc(-c3ccccc3C#N)cc12 | Ubiquitin carboxyl-terminal hydrolase 1 (Homo sapiens) (UniProt O94782) | N |
| CN1CCN(c2ncc3nc(-c4ccccc4)c(=O)n(C4CC4)c3n2)CC1 | Ubiquitin carboxyl-terminal hydrolase 1 (Homo sapiens) (UniProt O94782) | N |
| Cc1ccccc1-c1cncnc1NC1CCNCC1 | Ubiquitin carboxyl-terminal hydrolase 1 (Homo sapiens) (UniProt O94782) | N |
| Clc1ccccc1-c1cc(NCCN2CCOCC2)ncn1 | Ubiquitin carboxyl-terminal hydrolase 1 (Homo sapiens) (UniProt O94782) | N |
| FC(F)(F)c1ccccc1-c1nccc(-n2ccnc2)n1 | Ubiquitin carboxyl-terminal hydrolase 1 (Homo sapiens) (UniProt O94782) | N |
| COc1ccccc1CNc1ccnc(-c2ccccc2C(F)(F)F)n1 | Ubiquitin carboxyl-terminal hydrolase 1 (Homo sapiens) (UniProt O94782) | Y |

---

Target: Cytochrome P450 1A2 (Homo sapiens)
Assay: p450-cyp1a2 (AID 410)
Conditions: recombinant CYP1A2, luciferin-ME demethylation, luminescence; series mostly up to 57 µM
Results filed as inconclusive are left out. Active and inactive are the calls of the source. Calls follow the shape of the full dose curve.
Outcomes: active, inactive

| SMILES_STR | LABEL_CLASS |
| --- | --- |
| COc1ccc(-n2c(=O)c(-c3cc(F)cc(F)c3)nc3cnc(N4CCNCC4)nc32)cc1 | active |
| CS(=O)(=O)N1CCC2(CCN(c3ccncc3)CC2)CC1 | active |
| COc1ncc2nc(C)c(=O)n(CCc3ccccc3)c2n1 | active |
| O=[N+]([O-])c1cccc2c[nH]nc12 | active |
| O=C(c1cc(C(F)(F)F)cc(C(F)(F)F)c1)N1CCC[C@@]2(CCN(c3ncccn3)C2)C1 | inactive |
| Cc1nc2cnc(N(C)C)nc2n(C)c1=O | active |
| Cn1cccc1C(=O)N1CCC2(CC1)CCN(c1cccc(-c3ccccc3)c1)CC2 | active |
| CCNc1ncc2nc(-c3ccc(OC)cc3)c(=O)n(Cc3ccc(F)cc3)c2n1 | inactive |
| COc1ccccc1CN1CCCC2(CCN(C(=O)c3c(C)noc3C)CC2)C1 | inactive |
| CS(=O)(=O)N1CCC[C@@]2(CCN(C(c3ccccc3)c3ccccc3)C2)C1 | active |
| CN1CCN(c2ncc3nc(CCc4ccccc4)c(=O)n(C)c3n2)CC1 | active |
| Cn1c(=O)c(-c2cccs2)nc2cnc(Oc3ccccc3)nc21 | active |
| COc1ccccc1CN1CCCC2(CCN(C(=O)c3cccn3C)CC2)C1 | inactive |
| COc1ccc(-c2nc3cnc(N4CCOCC4)nc3n(CCC#N)c2=O)cc1 | active |
| COc1ccccc1CN1CCC2(CC1)CCN(S(=O)(=O)c1ccccc1)CC2 | inactive |
| O=c1c(-c2cc(F)cc(F)c2)nc2cnc(N3CCOCC3)nc2n1-c1ccccc1 | active |
| O=C(c1cccc(F)c1)N1CCC[C@@]2(CCN(C(c3ccccc3)c3ccccc3)C2)C1 | inactive |
| COc1ccc(Oc2ncc3nc(-c4ccc(F)cc4)c(=O)n(Cc4cccs4)c3n2)cc1 | active |
| O=C(c1cc(C(F)(F)F)cc(C(F)(F)F)c1)N1CCC[C@@]2(CCN(c3ccncc3)C2)C1 | inactive |
| CN1CCC2(CC1)CCN(S(=O)(=O)c1ccccc1)CC2 | inactive |
| CS(=O)(=O)Nc1cccc(-c2ccc3ncnc(Nc4ccc(F)cc4)c3c2)c1 | active |
| COc1cc2c(cc1OC)C(=O)Cc1ccc3c(c1CN(C)CC2)OCO3 | inactive |

---

Experiment: Stat Signaling Pathway (AID 446);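 further: ME-180 cervical cancer cells given 40 pM IL-6 alongside compound; SIE-controlled beta-lactamase reporter measured as 460/530 nm FRET emission ratio; on the % scale 0 is the no-effect control and ±100 the full control effect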
Details: ME-180 (cervical carcinoma) SIE beta-lactamase reporter, IL-6 stimulated, 5 h; at 7.69 µM (top of the series) unless noted
Results filed as inconclusive are left out. Calls of active or inactive are those of the source. Calls come from the whole dose curve; as a rule, active = well fitted curve in either direction with a large enough effect (not every such curve was filed as active); inconclusive = small, poorly fitted or top-dose-only effect, or another doubt; inactive = flat fitted curve, though single readings scatter.
Outcomes: True for active, False for inactive

| SMILES_STR | LABEL_CLASS |
| --- | --- |
| O=S(=O)(c1ccccc1)N1CCC2(CCN(Cc3ccncc3)CC2)CC1 | False |
| COCCn1c(=O)c(-c2cccc(C#N)c2)nc2cnc(Oc3ccc(OC)cc3)nc21 | False |
| COc1ccc2[nH]cc(CCNc3ncncc3-c3cccc(NS(C)(=O)=O)c3)c2c1 | False |
| N#Cc1ccc(CN2CCC3(CC2)CCN(C(=O)c2ccco2)CC3)cc1 | False |
| CC(C)NC(=O)N1CCC2(CC1)CCN(C(=O)c1cccn1C)CC2 | False |
| Cc1cnc(CNc2ncnc3ccc(-c4cccc(C#N)c4)cc23)cn1 | False |
| CN(C)Cc1ccccc1-c1nc(NC2CC2)c2ccccc2n1 | False |
| N#CCCn1c(=O)c(-c2cccs2)nc2cnc(Nc3ccccc3)nc21 | False |
| Cc1noc(C)c1-c1cncnc1Nc1ccccc1 | False |
| COc1ccc(-n2c(=O)c(-c3ccc(F)cc3)nc3cnc(N4CCNCC4)nc32)cc1 | False |
| O=C(c1cnccn1)N1CCC2(CCN(Cc3ccccc3)CC2)CC1 | False |
| CN(C)c1ncc2nc(CCc3ccccc3)c(=O)n(C3CC3)c2n1 | False |
| O=C(c1cnccn1)N1CCC2(CC1)CCN(c1cccc(-c3ccccc3)c1)CC2 | False |
| c1cc(NC2CC2)nc(-c2ccoc2)n1 | False |
| CN(C)c1ccc(-c2nc(NCCc3cnc[nH]3)c3ccccc3n2)cc1 | False |
| COc1ccccc1CN1CCC2(CC1)CCN(C(=O)c1csnn1)CC2 | False |
| COc1cccc(Cn2c(=O)c(-c3ccccc3)nc3cnc(N(C)C)nc32)c1 | False |
| COc1ccc(-c2nc3cnc(N(C)C)nc3n(Cc3ccc(F)cc3)c2=O)cc1 | True |
| O=C(c1csnn1)N1CCC[C@@]2(CCN(c3cccc(-c4ccccc4)c3)C2)C1 | False |
| Cn1cc(-c2nc3cnc(OCc4ccccc4)nc3n(CCC#N)c2=O)c2ccccc21 | False |
| CS(=O)(=O)N1CCC2(CC1)CN(Cc1ccccc1)C2 | False |
| COc1cccc(Nc2ncc3nc(-c4cccs4)c(=O)n(-c4ccccc4)c3n2)c1 | False |
| CNc1nc(-c2cccnc2)nc2ccccc12 | False |
| CC(C)NC(=O)N1CC[C@@]2(CCCN(C(=O)c3ccncc3)C2)C1 | False |
| O=C(Nc1cccc(F)c1)N1CC2(CCN(C(=O)c3cccc(F)c3)CC2)C1 | False |
| O=C(c1ccncc1)N1CCC[C@@]2(CCN(c3ccncc3)C2)C1 | False |
| CNc1nc(-c2c(C)noc2C)nc2ccccc12 | False |
| COc1ccccc1-c1ccc2ncnc(N(C)C)c2c1 | False |
| Nc1nc2n[nH]nc2c(=O)[nH]1 | False |
| C[C@@H](COc1ccccc1)N(CCCl)Cc1ccccc1 | False |
| O=C(c1cnccn1)N1CCC2(CC1)CN(c1ccccn1)C2 | False |
| CC(=O)NCCNc1nc(-c2ccc(C(=O)N(C)C)cc2)nc2ccccc12 | False |
| COc1cccc(Cn2c(=O)c(-c3cccs3)nc3cncnc32)c1 | False |
| O=C(Nc1ccccc1)N1CC[C@@]2(CCCN(C(=O)c3ccncc3)C2)C1 | False |
| O=S(=O)(c1ccccc1)N1CCC2(CC1)CN(Cc1nccs1)C2 | False |
| COc1ccccc1CNc1cc(-c2ccccc2OC)ncn1 | False |
| COc1cccc(-c2cc(NCc3ccccc3)ncn2)c1 | False |
| Cc1nc2cnc(OCc3ccccc3)nc2n(CCC#N)c1=O | False |
| Cc1noc(C)c1C(=O)N1CCC2(CCCN(Cc3ccc(C#N)cc3)C2)CC1 | False |
| COc1cccc(Cn2c(=O)c(-c3ccc(F)cc3)nc3cncnc32)c1 | False |
| O=C(c1cnccn1)N1CCC[C@@]2(CCN(c3ccccn3)C2)C1 | False |
| c1ccc(Nc2ncnc3ccc(-c4cccnc4)cc23)cc1 | False |
| COc1ccc(-n2c(=O)c(-c3cccc(Cl)c3)nc3cncnc32)cc1 | False |
| O=C(c1ccco1)N1CCC2(CCN(Cc3ccccc3)CC2)CC1 | False |
| COc1ccc(CNc2ncncc2-c2ccc3c(c2)OCO3)c(OC)c1 | False |
